Molecular target: c-Met (Homo sapiens, UniProt P08581)
Sequence (P08581 25-1390): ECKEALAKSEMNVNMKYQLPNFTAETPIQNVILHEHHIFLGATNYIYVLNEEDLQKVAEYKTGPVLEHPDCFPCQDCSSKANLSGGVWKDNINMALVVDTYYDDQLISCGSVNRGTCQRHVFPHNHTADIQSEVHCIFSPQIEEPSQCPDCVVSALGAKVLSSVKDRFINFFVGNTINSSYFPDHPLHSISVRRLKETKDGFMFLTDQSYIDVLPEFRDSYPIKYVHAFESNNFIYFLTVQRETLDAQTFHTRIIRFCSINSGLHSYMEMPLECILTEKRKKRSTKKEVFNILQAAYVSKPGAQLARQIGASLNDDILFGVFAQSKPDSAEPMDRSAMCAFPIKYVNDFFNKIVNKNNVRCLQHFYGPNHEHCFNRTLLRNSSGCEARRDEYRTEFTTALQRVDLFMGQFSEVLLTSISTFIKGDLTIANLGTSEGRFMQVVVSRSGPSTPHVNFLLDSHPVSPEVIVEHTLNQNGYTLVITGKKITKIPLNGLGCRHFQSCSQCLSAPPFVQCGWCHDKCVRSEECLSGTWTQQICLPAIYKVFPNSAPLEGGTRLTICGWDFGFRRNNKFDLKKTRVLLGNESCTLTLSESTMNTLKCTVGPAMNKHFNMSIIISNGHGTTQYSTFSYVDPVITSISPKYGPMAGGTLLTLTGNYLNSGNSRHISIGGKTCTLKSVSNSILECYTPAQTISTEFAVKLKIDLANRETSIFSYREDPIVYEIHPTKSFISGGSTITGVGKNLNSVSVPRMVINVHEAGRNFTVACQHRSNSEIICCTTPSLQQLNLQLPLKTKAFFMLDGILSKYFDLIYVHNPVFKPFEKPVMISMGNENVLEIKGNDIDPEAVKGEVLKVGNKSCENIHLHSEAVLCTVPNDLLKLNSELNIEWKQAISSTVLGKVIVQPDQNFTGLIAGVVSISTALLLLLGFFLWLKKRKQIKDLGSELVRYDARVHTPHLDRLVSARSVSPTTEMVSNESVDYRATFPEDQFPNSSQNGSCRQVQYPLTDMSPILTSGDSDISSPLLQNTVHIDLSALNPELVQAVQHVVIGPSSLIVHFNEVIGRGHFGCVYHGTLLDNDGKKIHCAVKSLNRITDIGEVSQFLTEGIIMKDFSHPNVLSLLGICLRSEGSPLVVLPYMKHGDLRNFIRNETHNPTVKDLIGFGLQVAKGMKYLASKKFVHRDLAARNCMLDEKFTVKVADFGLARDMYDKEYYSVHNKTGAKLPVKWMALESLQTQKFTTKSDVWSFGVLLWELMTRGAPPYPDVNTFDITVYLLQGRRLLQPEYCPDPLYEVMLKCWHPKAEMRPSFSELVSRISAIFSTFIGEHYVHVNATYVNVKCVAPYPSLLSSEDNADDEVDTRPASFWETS
attribute.measured: pIC50
Expect pIC50 as a plain number equal to -log10 of the molar concentration.

Incoming: Would you kindly share the measured pIC50 for C[C@@H](c1ccc2nccn2c1)n1nnc2ncc(-c3cnn(C)c3)nc21 [Savolitinib] ?
Outgoing: 8.45
